system: six broadleaf weeds (CASOB, IPOHE, ABUTH, AMARE, CHEAL, XANST); assay: Greenhouse pre-emergence test, mean control of six broadleaf weeds; assay type: in vivo; details: soil surface spray 1 day after planting, visual rating 0-100% after two weeks, grass herbicides 1000 g/ha, atrazine 1680 g/ha, isoxaflutole 78 g/ha, B-128 125 g/ha
Entries and their measured broadleaf control follow.
Your answer is read as %, so omit the unit and give the number.

Past entries and their recorded results:
{"Compound": "CCc1cccc(C)c1N(C(=O)CCl)[C@@H](C)COC", "System name": "six broadleaf weeds (CASOB, IPOHE, ABUTH, AMARE, CHEAL, XANST)", "Value": 41}
{"Compound": "CCc1cccc(CC)c1N(CC#N)C(=O)CCl", "System name": "six broadleaf weeds (CASOB, IPOHE, ABUTH, AMARE, CHEAL, XANST)", "Value": 22}
{"Compound": "C#CCN(C(=O)CCl)c1c(C)cccc1CC", "System name": "six broadleaf weeds (CASOB, IPOHE, ABUTH, AMARE, CHEAL, XANST)", "Value": 32}
{"Compound": "C#CCN(C(=O)CCl)c1c(CC)cccc1CC", "System name": "six broadleaf weeds (CASOB, IPOHE, ABUTH, AMARE, CHEAL, XANST)", "Value": 53}

Response field broadleaf control (six broadleaf weeds (CASOB, IPOHE, ABUTH, AMARE, CHEAL, XANST)) for item C#CCN(C(=O)CCl)c1c(C)cccc1C : 33

Entry CCOCN(C(=O)CCl)c1c(C)cccc1CC : broadleaf control on six broadleaf weeds (CASOB, IPOHE, ABUTH, AMARE, CHEAL, XANST) = 75

# broadleaf control measured on six broadleaf weeds (CASOB, IPOHE, ABUTH, AMARE, CHEAL, XANST) for item COCC(C)N(C(=O)CCl)c1c(C)csc1C (stereo not shown) = 68
